Provide the recorded IC50 for the entries that follow.
System under test: catalytic domain (JH1, amino acids 826-1132) of human JAK2 (Homo sapiens)
Construct: catalytic domain (JH1, amino acids 826-1132) of human JAK2
Sequence (O60674 826-1132): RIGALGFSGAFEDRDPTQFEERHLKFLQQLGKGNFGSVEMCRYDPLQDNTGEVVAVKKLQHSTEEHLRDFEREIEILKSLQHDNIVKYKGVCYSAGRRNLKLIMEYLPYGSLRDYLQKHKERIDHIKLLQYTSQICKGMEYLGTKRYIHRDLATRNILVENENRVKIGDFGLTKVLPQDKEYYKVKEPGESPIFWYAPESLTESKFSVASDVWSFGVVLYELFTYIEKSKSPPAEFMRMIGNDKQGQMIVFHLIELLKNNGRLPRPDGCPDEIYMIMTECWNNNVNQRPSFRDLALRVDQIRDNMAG
Procedure text: JAK2 LanthaScreen JH1 Binding Assay
Condition: 2 hours at 25° C.
Where a name gives a salt, the structure may show the parent alone.

Output reported IC50 of the compound CCS(=O)(=O)N1CCC[C@]2(CC1)C(=O)N(C)c1cnc3[nH]c(-c4cnn(C(C)C)c4)c(-c4ccc5c(cnn5C)c4)c3c12 (single isomer, unassigned) [Example 53a] on catalytic domain (JH1, amino acids 826-1132) of human JAK2 (Homo sapiens).
> 2500 nM

Output reported IC50 of the compound CN1C(=O)C2(CCN(C3(CC#N)CCC3)CC2)c2c1cnc1[nH]c(-c3cnn(CC(C)(C)O)c3)c(-c3cc4cnccc4s3)c21 [Example 48, trifluoroacetate salt] on catalytic domain (JH1, amino acids 826-1132) of human JAK2 (Homo sapiens).
100 to 500 nM

Output reported IC50 of the compound CN1C(=O)C2(CC3CCC(C2)N3c2ccncn2)c2c1cnc1[nH]c(-c3ccc(CN4CCC(S(C)(=O)=O)CC4)cc3)c(-c3ccccc3)c21 (centres unmarked) [Example 16, trifluoroacetate salt] on catalytic domain (JH1, amino acids 826-1132) of human JAK2 (Homo sapiens).
> 2500 nM

Output reported IC50 of the compound [2H]C([2H])([2H])n1ncc2cc(-c3c(-c4cnn(C)c4)[nH]c4ncc5c(c34)C3(CCN([C@@](C)(CC#N)COC)CC3)C(=O)N5C)ccc21 (single isomer, unassigned) [Example 80b] on catalytic domain (JH1, amino acids 826-1132) of human JAK2 (Homo sapiens).
500 to 1250 nM

Output reported IC50 of the compound COc1c(F)cc(-c2c(-c3cnn(CC(C)(C)O)c3)[nH]c3ncc4c(c23)C2(CCN(C3(CC#N)CCC3)CC2)C(=O)N4C)cc1F [Example 47, trifluoroacetate salt] on catalytic domain (JH1, amino acids 826-1132) of human JAK2 (Homo sapiens).
> 2500 nM

Output reported IC50 of the compound CN1C(=O)C2(CCN(CC3(CC#N)CC3)C2)c2c1cnc1[nH]c(-c3ccc4c(c3)OCC(=O)N4)c(-c3ccc4c(cnn4C)c3)c21 (racemic) [Example 67, trifluoroacetate salt] on catalytic domain (JH1, amino acids 826-1132) of human JAK2 (Homo sapiens).
> 2500 nM

Output reported IC50 of the compound Cc1ncc(-c2c(-c3cnn(C)c3)[nH]c3ncc4c(c23)C2(CCN(c3ccncn3)CC2)C(=O)N4C)s1 [Example 17, trifluoroacetate salt] on catalytic domain (JH1, amino acids 826-1132) of human JAK2 (Homo sapiens).
> 2500 nM

Output reported IC50 of the compound CN1C(=O)C2(CCN(CC3(CC#N)CC3)C2)c2c1cnc1[nH]c(-c3cnn(Cc4ccc(C#N)cc4)c3)c(-c3ccc4c(cnn4C)c3)c21 (racemic) [Example 69, trifluoroacetate salt] on catalytic domain (JH1, amino acids 826-1132) of human JAK2 (Homo sapiens).
500 to 1250 nM

Output reported IC50 of the compound CN1C(=O)[C@@]2(CCN(CC3(CC#N)CC3)C2)c2c1cnc1[nH]c(-c3cnn(C)c3)c(-c3ccc4c(cnn4C)c3)c21 (single isomer, unassigned) [Example 66] on catalytic domain (JH1, amino acids 826-1132) of human JAK2 (Homo sapiens).
500 to 1250 nM

Output reported IC50 of the compound CON1C(=O)C2(CCN(CC3(CC#N)CC3)C2)c2c1cnc1[nH]c(-c3cnn(C)c3)c(-c3ccc4c(cnn4C)c3)c21 (racemic) [Example 72, trifluoroacetate salt] on catalytic domain (JH1, amino acids 826-1132) of human JAK2 (Homo sapiens).
> 2500 nM

Output reported IC50 of the compound [2H]C([2H])([2H])n1ncc2cc(-c3c(-c4cnn(C)c4)[nH]c4ncc5c(c34)C3(CC4(CCN(C(=O)OC)CC4)C3)C(=O)N5C)ccc21 [Example 58, trifluoroacetate salt] on catalytic domain (JH1, amino acids 826-1132) of human JAK2 (Homo sapiens).
1250 to 2500 nM

Output reported IC50 of the compound CN1C(=O)C2(CCN(C3(CC#N)CCCC3)CC2)c2c1cnc1[nH]c(-c3cnn(C)c3)c(-c3ccc4c(cnn4C)c3)c21 [Example 73, trifluoroacetate salt] on catalytic domain (JH1, amino acids 826-1132) of human JAK2 (Homo sapiens).
100 to 500 nM

Output reported IC50 of the compound CN1C(=O)C2(CCCC2)c2c1cnc1[nH]c(-c3cnn(C)c3)c(-c3ccc(CN4CCN(S(C)(=O)=O)CC4)cc3)c21 [Example 22, trifluoroacetate salt] on catalytic domain (JH1, amino acids 826-1132) of human JAK2 (Homo sapiens).
> 2500 nM

Output reported IC50 of the compound [2H]C([2H])([2H])n1ncc2cc(-c3c(-c4cnn(C)c4)[nH]c4ncc5c(c34)[C@@]3(CC[C@H](NC(=O)C4(CC(N)=O)CCC4)C3)C(=O)N5C)ccc21 (racemic) [Example 100, trifluoroacetate salt] on catalytic domain (JH1, amino acids 826-1132) of human JAK2 (Homo sapiens).
> 2500 nM

Output reported IC50 of the compound CN1C(=O)C2(CCN(C3(CC#N)CCC3)CC2)c2c1cnc1[nH]c(-c3cnn(CC(C)(C)O)c3)c(-c3ccc(OC(F)(F)F)cc3)c21 [Example 50, trifluoroacetate salt] on catalytic domain (JH1, amino acids 826-1132) of human JAK2 (Homo sapiens).
> 2500 nM

Output reported IC50 of the compound CN1C(=O)C2(CCN(c3cnn(C4(CC#N)CCOCC4)c3)CC2)c2c1cnc1[nH]c(-c3cnn(C)c3)c(-c3ccccc3)c21 [Example 6, trifluoroacetate salt] on catalytic domain (JH1, amino acids 826-1132) of human JAK2 (Homo sapiens).
> 2500 nM

Output reported IC50 of the compound CN1C(=O)C2(CCCC2)c2c1cnc1[nH]c(C3CC3)c(-c3ccc4c(cnn4C)c3)c21 [Example 9, trifluoroacetate salt] on catalytic domain (JH1, amino acids 826-1132) of human JAK2 (Homo sapiens).
> 2500 nM

Output reported IC50 of the compound CN1C(=O)C2(CCN(C3(CC#N)CCC3)CC2)c2c1cnc1[nH]c(-c3cnn(CC(F)(F)F)c3)c(-c3ccc4c(cnn4C)c3)c21 [Example 33, trifluoroacetate salt] on catalytic domain (JH1, amino acids 826-1132) of human JAK2 (Homo sapiens).
500 to 1250 nM

Output reported IC50 of the compound CN1C(=O)C2(CCN(C3(CC#N)CC(NS(=O)(=O)c4ccccc4)C3)CC2)c2c1cnc1[nH]c(-c3cnn(C)c3)c(-c3ccccc3)c21 (centres unmarked) [Example 29] on catalytic domain (JH1, amino acids 826-1132) of human JAK2 (Homo sapiens).
500 to 1250 nM

Output reported IC50 of the compound CN1C(=O)C2(CCN(C(=O)CC3CCOCC3)C2)c2c1cnc1[nH]c(-c3ccc(CN4CCC(S(C)(=O)=O)CC4)cc3)c(-c3ccccc3)c21 (racemic) [Example 12, trifluoroacetate salt] on catalytic domain (JH1, amino acids 826-1132) of human JAK2 (Homo sapiens).
> 2500 nM

Ref: patent US11958861B2
